TARGET: MK2 (Homo sapiens)
EXPERIMENTAL_DETAILS: MK2 degradation in human THP-1 monocytic cells (MSD, 24 h)
Type: cell-based
Parameters: endogenous in cells
CONDITION_DETAILS: THP-1, THP-1 cells
VALUE_KIND: Dmax

| COMPOUND | VALUE_KIND | ENDPOINT_RESULT |
| --- | --- | --- |
| C[C@@H]1CNc2c(sc3ccc4nc(-c5cc(N6CCC(CN7CCN(c8cccc9c8n(C)c(=O)n9C8CCC(=O)NC8=O)CC7)CC6)ccc5F)ccc4c23)C(=O)N1 (some centres unmarked) | Dmax | > 75% |
| Cn1c(=O)n(C2CCC(=O)NC2=O)c2ccc(N3CCC(CN4CCN(c5ccc6occc6c5-c5cc(Nc6ccnc(N)n6)cc6cn[nH]c56)CC4)CC3)cc21 (centres unmarked) | Dmax | < 50% |
| Cn1c(=O)n(C2CCC(=O)NC2=O)c2cccc(CCCCCCCN3CCN(c4ccc(F)c(-c5cc(-c6cc7c([nH]6)CCNC7=O)ccn5)c4)CC3)c21 (centres unmarked) | Dmax | < 50% |
| Cn1c(=O)n(C2CCC(=O)NC2=O)c2ccc(N3CCC(CN4CCN(c5ccc6oc(-c7cc(Nc8ccnc(N)n8)cc8cn[nH]c78)cc6c5)CC4)CC3)cc21 (centres unmarked) | Dmax | < 50% |
| C[C@@H]1CNc2c(sc3ccc4nc(-c5cncc(N6CCN(C(=O)COCCOCCc7cccc8c7n(C)c(=O)n8C7CCC(=O)NC7=O)CC6)c5)ccc4c23)C(=O)N1 (some centres unmarked) | Dmax | > 75% |

* * *

TARGET: MK2 (Homo sapiens, UniProt P49137)
Sequence (P49137 whole entry): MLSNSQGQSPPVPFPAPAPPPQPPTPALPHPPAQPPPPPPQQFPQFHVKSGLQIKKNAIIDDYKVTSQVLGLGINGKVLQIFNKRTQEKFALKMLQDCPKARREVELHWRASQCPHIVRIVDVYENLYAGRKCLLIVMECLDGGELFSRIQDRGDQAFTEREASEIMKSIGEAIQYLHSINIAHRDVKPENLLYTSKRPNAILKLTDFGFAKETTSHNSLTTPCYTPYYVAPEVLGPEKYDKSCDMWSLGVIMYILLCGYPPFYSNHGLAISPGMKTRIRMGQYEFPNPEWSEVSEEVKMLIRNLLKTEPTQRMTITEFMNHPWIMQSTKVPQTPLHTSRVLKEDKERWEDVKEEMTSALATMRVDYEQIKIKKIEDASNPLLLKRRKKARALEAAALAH
EXPERIMENTAL_DETAILS: MK2 degradation in human THP-1 monocytic cells (MSD, 24 h)
Assay type: cell-based
Set-up: endogenous in cells
CONDITION_DETAILS: THP-1, THP-1 cells
VALUE_KIND: Dmax

| COMPOUND | TARGET | ENDPOINT_RESULT |
| --- | --- | --- |
| Cn1c(=O)n(C2CCC(=O)NC2=O)c2cccc(N3CCC(CN4CCC5(CC4)CNC(=O)c4c5[nH]c5c4CCc4cnc(-c6ccccc6F)cc4-5)CC3)c21 (centres unmarked) | MK2 (Homo sapiens, UniProt P49137) | < 50% |
| C[C@@H]1CNc2c(sc3ccc4nc(-c5cncc(N6CCN(CCCCCc7cccc8c7n(C)c(=O)n8C7CCC(=O)NC7=O)CC6)c5)ccc4c23)C(=O)N1 (some centres unmarked) | MK2 (Homo sapiens, UniProt P49137) | > 75% |
| O=C1CCN(c2cncc3c(N4CCC(CN5CCN(c6ccc(-c7cc(-c8cc9c([nH]8)C8(CC8)CNC9=O)ccn7)cc6)CC5)CC4)cccc23)C(=O)N1 | MK2 (Homo sapiens, UniProt P49137) | 50 to 75% |
| Cc1cc(-c2cc(-c3cc4c([nH]3)CCNC4=O)ccn2)cc(C)c1N1CCN(CC2CCN(c3ccc4c(c3)n(C)c(=O)n4C3CCC(=O)NC3=O)CC2)CC1 (centres unmarked) | MK2 (Homo sapiens, UniProt P49137) | 50 to 75% |
| C[C@@H]1CNc2c(sc3ccc4nc(N5CCCN(CCC6CCN(c7ccc8c(c7)n(C)c(=O)n8C7CCC(=O)NC7=O)CC6)CC5)ccc4c23)C(=O)N1 (some centres unmarked) | MK2 (Homo sapiens, UniProt P49137) | 50 to 75% |

* * *

In this section we review reported Dmax values for a set of molecules.
TARGET: MK2 (Homo sapiens, UniProt P49137)
EXPERIMENTAL_DETAILS: MK2 degradation in human THP-1 monocytic cells (MSD, 24 h)
Type: cell-based
Design: endogenous in cells
CONDITION_DETAILS: THP-1, THP-1 cells
VALUE_KIND: Dmax

| MOLECULE | ENDPOINT_RESULT |
| --- | --- |
| O=C1CCC(N2Cc3cc(N4CCN(CC5CCN(c6ccc(F)c(-c7cc(-c8cc9c([nH]8)CCNC9=O)ccn7)c6)CC5)CC4)ccc3C2=O)C(=O)N1 (stereo not shown) | < 50% |
| C[C@@H]1CNc2c(sc3ccc4nc(-c5ccc(N6CCC7(CC6)CN(CCCCCCc6cccc8c6n(C)c(=O)n8C6CCC(=O)NC6=O)C7)cc5)ccc4c23)C(=O)N1 (stereo partly shown) | > 75% |
| C[C@@H]1Cc2oc(-c3ccnc(-c4ccc(N5CCN(CC6CCN(c7ccc8c(c7)n(C)c(=O)n8C7CCC(=O)NC7=O)CC6)CC5)nc4)c3)cc2C(=O)N1 (stereo partly shown) | < 50% |
| Cc1cc(N2CCN(CC3CN(c4ccc5c(c4)n(C)c(=O)n5C4CCC(=O)NC4=O)C3)CC2)ncc1-c1ccc2c(ccc3sc4c(c32)NC[C@@H](C)NC4=O)n1 (stereo partly shown) | 50 to 75% |
| Cc1cc(N2CCN(CC3CN(c4ccc5c(c4)n(C)c(=O)n5C4CCC(=O)NC4=O)C3)CC2)ccc1-c1ccc2c(ccc3sc4c(c32)NC[C@@H](C)NC4=O)n1 (stereo partly shown) | > 75% |
| Cn1c(=O)n(C2CCC(=O)NC2=O)c2cccc(N3CC(CN4CCN(c5ccc(-c6cc(-c7cc8c([nH]7)C7(CC7)CNC8=O)ccn6)cc5)CC4)C3)c21 (stereo not shown) | > 75% |
| O=C1CCN(c2cncc3c(N4CC(CN5CCN(c6ccc(-c7cc(-c8cc9c([nH]8)CCNC9=O)ccn7)cc6)CC5)C4)cccc23)C(=O)N1 | > 75% |
| C[C@@H]1CNc2c(sc3ccc4nc(N5C[C@H]6C[C@@H]5CN6CC5CCN(c6cccc7c6n(C)c(=O)n7C6CCC(=O)NC6=O)CC5)ccc4c23)C(=O)N1 (stereo partly shown) | < 50% |
| Cc1ccc(NC(=O)c2cccc(C(F)(F)F)c2)cc1N1Cc2cnc(Nc3ccc(N4CCN(CCCCCC(=O)N[C@H](C(=O)N5C[C@H](O)C[C@H]5C(=O)N[C@@H](C)c5ccc(-c6scnc6C)cc5)C(C)(C)C)CC4)nc3)nc2N(C)C1=O | > 75% |
| C[C@@H]1CNc2c(sc3ccc4nc(-c5cccc(N6CCN(C(=O)COCCOCCc7cccc8c7n(C)c(=O)n8C7CCC(=O)NC7=O)CC6)c5)ccc4c23)C(=O)N1 (stereo partly shown) | > 75% |

* * *

TARGET: MK2 (Homo sapiens, UniProt P49137)
EXPERIMENTAL_DETAILS: MK2 degradation in human THP-1 monocytic cells (MSD, 24 h)
Type: cell-based
Set-up: endogenous in cells
CONDITION_DETAILS: THP-1 cells, read-out: MK2 MSD THP-1 degradation 24 h GMean External Abs DC50
Documented DC50 across a set of molecules

| MOLECULE | TARGET | DC50 |
| --- | --- | --- |
| C[C@@H]1CNc2c(sc3ccc4nc(-c5cnc(N6CCC(CN7CCN(c8ccc9c(c8)n(C)c(=O)n9C8CCC(=O)NC8=O)CC7)CC6)nc5)ccc4c23)C(=O)N1 (some centres unmarked) [Compound I-271] | MK2 (Homo sapiens, UniProt P49137) | < 1 nM |
| O=C1CCN(c2cncc3c(N4CC(CN5CCN(c6ccc(-c7cc(-c8cc9c([nH]8)CCNC9=O)ccn7)cc6)CC5)C4)cccc23)C(=O)N1 [Compound I-197] | MK2 (Homo sapiens, UniProt P49137) | 10 to 100 nM |
| C[C@@H]1CNc2c(sc3ccc4nc(-c5ccc(N6CCC(CN7CCC(c8cccc9c8n(C)c(=O)n9C8CCC(=O)NC8=O)CC7)CC6)cc5)ccc4c23)C(=O)N1 (some centres unmarked) [Compound I-98] | MK2 (Homo sapiens, UniProt P49137) | < 1 nM |
| C[C@@H]1CNc2c(sc3ccc4nc(-c5cccc(N6CCC7(CC6)CN(CCCCCCc6cccc8c6n(C)c(=O)n8C6CCC(=O)NC6=O)C7)c5)ccc4c23)C(=O)N1 (some centres unmarked) [Compound I-293] | MK2 (Homo sapiens, UniProt P49137) | < 1 nM |
| C[C@@H]1CN(C)c2c(sc3ccc4nc(-c5ccc(N6CCN(CC7CCN(c8ccc9c(c8)n(C)c(=O)n9C8CCC(=O)NC8=O)CC7)CC6)nc5)ccc4c23)C(=O)N1 (some centres unmarked) [Compound I-268] | MK2 (Homo sapiens, UniProt P49137) | 1 to 10 nM |

* * *

Listed here: items and their measured DC50.
TARGET: MK2 (Homo sapiens)
EXPERIMENTAL_DETAILS: MK2 degradation in human THP-1 monocytic cells (MSD, 24 h)
Assay type: cell-based
Set-up: endogenous in cells
CONDITION_DETAILS: THP-1 cells, read-out: MK2 MSD THP-1 degradation 24 h GMean External Abs DC50

| COMPOUND | DC50 |
| --- | --- |
| CN1CC2(CNC(=O)c3c2[nH]c2c3CCc3cnc(-c4ccc(CN5CCC(OCC#Cc6cccc7c6n(C)c(=O)n7C6CCC(=O)NC6=O)CC5)cc4F)cc3-2)C1 (centres unmarked) [Compound I-2] | > 100 nM |
| C[C@@H]1CNc2c(sc3ccc4nc(-c5ccc(N6CCC(CN7CCN(c8cccc9c(N%10CCC(=O)NC%10=O)cncc89)CC7)CC6)cc5)ccc4c23)C(=O)N1 [Compound I-317] | < 1 nM |
| Cn1c(=O)n(C2CCC(=O)NC2=O)c2ccc(N3CC(CN4CCN(c5ccc(-c6nccc(-c7cc8c([nH]7)C7(CCCC7)CNC8=O)n6)cc5)CC4)C3)cc21 (centres unmarked) [Compound I-405] | < 1 nM |
| Cn1c(=O)n(C2CCC(=O)NC2=O)c2cccc(CCCCN3CC4(CCN(c5ccc6c(c5)Cn5cc(-c7ccc(F)cc7)cc5-c5nccn5-6)C4)C3)c21 (centres unmarked) [Compound I-167] | > 100 nM |
| Cn1c(=O)n(C2CCC(=O)NC2=O)c2ccc(CCN3CCN(c4ccc(-c5cc(-c6cc7c([nH]6)C6(CC6)CNC7=O)ccn5)cn4)CC3)cc21 (centres unmarked) [Compound I-201] | > 100 nM |
| C[C@@H]1CNc2c(sc3ccc4nc(N5CCN(CC6CCN(c7ccc8c(c7)n(C)c(=O)n8C7CCC(=O)NC7=O)CC6)CC5)ccc4c23)C(=O)N1 (some centres unmarked) [Compound I-265] | 1 to 10 nM |
| C[C@@H]1CNc2c(sc3ccc4nc(-c5ccc(N6CCN(CCCCCCCCc7cccc8c7n(C)c(=O)n8C7CCC(=O)NC7=O)CC6)cc5)ccc4c23)C(=O)N1 (some centres unmarked) [Compound I-170] | 1 to 10 nM |
| C[C@@H]1CNc2c(sc3ccc4nc(-c5cccc(N6CCN(CCCc7cccc8c7n(C)c(=O)n8C7CCC(=O)NC7=O)CC6)c5)ccc4c23)C(=O)N1 (some centres unmarked) [Compound I-93] | < 1 nM |
| C[C@@H]1CNc2c(sc3ccc4nc(N5CCCN(CC6CCN(c7ccc8c(c7)n(C)c(=O)n8C7CCC(=O)NC7=O)CC6)CC5)ccc4c23)C(=O)N1 (some centres unmarked) [Compound I-446] | > 100 nM |
| O=C1CCN(c2cncc3c(N4CCC(CN5CCN(c6ccc(-c7cc(-c8cc9c([nH]8)C8(CC8)CNC9=O)ccn7)cc6)CC5)CC4)cccc23)C(=O)N1 [Compound I-211] | 10 to 100 nM |
| Cc1cnc(-c2ccnc(C(=O)NCCCCCCc3ccc4c(c3)n(C)c(=O)n4C3CCC(=O)NC3=O)n2)cc1-n1c(C)cc(OCc2ncc(F)cc2F)c(Cl)c1=O (centres unmarked) [Compound I-220] | > 100 nM |
